Cited source for all entries: paper PMC4643051

B1: unnamed (parent)
chain 1: DSGCVVSWKNKELKCGSGIFITDNVHTWTEQYKFQPESPSKLASAIQKAHEEGICGIRSVTRLENLMWKQITPELNHILSENEVKLTIMTGDIKGIMQAGKRSLRPQPTELKYSWKTWGKAKMLSTESHNQTFLIDGPETAECPNTNRAWNSLEVEDYGFGVFTTNIWLKLKEKQDVFCDSKLMSAAIKDNRAVHADMGYWIESALNDTWKIEKASFIEVKNCHWPKSHTLWSNGVLESEMIIPKNLAGPVSQHNYRPGYHTQITGPWHLGKLEMDFDFCDGTTVVVTEDCGNRGPSLRTTTASGKLITEWCCRSCTLPPLRYRGEDGCWYGMEIRPLKEKEENLVNSLVTA
chain 2: FHLTTRNGEPHMIVSRQEKGKSLLFKTEDGVNMCTLMAMDLGELCEDTITYKCPLLRQNEPEDIDCWCNSTSTWVTYGTCTTMGEHRRQKRSVALVPHVGMGLETRTETWMSSEGAWKHVQRIETWILRHPGFTMMAAILAYTIGTTHFQRALIFILLTAVTPSMT

variants of: B1; conditions: with partner chain of the complex shown;; read off a plot
The following variants are shown together with reported ratio to parent values.

Please review the entries below; each comes with its answer.
[[record]]
mutant_name = "chain 1 D180A"
metric_name = "ratio to parent"
result = "1.5 fold of WT"

[[record]]
mutant_name = "chain 1 S114A"
metric_name = "ratio to parent"
result = "0.27 fold of WT"

[[record]]
mutant_name = "chain 1 T301A"
metric_name = "ratio to parent"
result = "1.7 fold of WT"

[[record]]
mutant_name = "chain 1 W115A"
metric_name = "ratio to parent"
result = "0.45 fold of WT"


[Q] I am curious: what ratio to parent value has been reported for chain 1 T117A ?
[A] 1.5 fold of WT
